Reported values of GI50 for individual entries
System: A549
run description: NCI tumour cell line growth inhibition, 48 h
The source made the active and inactive calls. Rule as the data show it: active = GI50 up to about 1.1 µM and inactive = higher.

N#Cc1ccccc1C(Cl)(Cl)c1cnccn1
83.9 µM (inactive)
CCOC(=O)C(SCCO)C(C(=O)OCC)n1ccc(=O)[nH]c1=O (stereo unspecified)
> 100 µM (inactive)
COC(=O)c1ccc2n[se]nc2c1
> 100 µM (inactive)
CCOc1ccc2c(c1)[n+]([O-])c(-c1nc3ccccc3s1)c(N)[n+]2[O-]
61.8 µM (inactive)
C[n+]1c(-c2ccc(/C=N/NC(=O)c3ccc(C(=O)N/N=C/c4ccc(-c5cn6ccccc6[n+]5C)cc4)cc3)cc2)cn2ccccc21
> 100 µM (inactive)

I am curious: what GI50 value has been reported for O=C(Nc1ccccc1SC(/C=C/NNC1=NN=C(c2ccccc2)C(c2ccccc2)N1)c1ccccc1)c1ccc(Cl)cc1Cl (stereo unspecified) ?
38.9 µM (inactive)

----------
Tested on: UACC-257
run description: NCI tumour cell line growth inhibition, 48 h
Activity calls are given as the source filed them. Rule as the data show it: active = GI50 up to about 1.1 µM and inactive = higher.
Reported values of GI50 for individual entries

I am curious: what GI50 value has been reported for COc1cccc(C2c3cc4c(cc3OC(NNS(=O)(=O)c3ccc(C)cc3)C2C)OCO4)c1OC (stereo not given) ?
2.7 µM (inactive)

Then this compound: C=C(Br)CN(CC(=C)Br)C(C)=O
> 100 µM (inactive)

Then this compound: CCOC(=O)CCc1c(C(=O)OCC)[nH]c(/C=C2/NC(=O)C(C)=C2CC)c1C
10.1 µM (inactive)

Then this compound: COc1ccc(C2c3cc4c(cc3OC(N3CCOCC3)C2C)OCO4)cc1OC (stereo not given)
16.7 µM (inactive)

Then this compound: O=C(Nc1ccccc1SC(/C=C/NNC1=NN=C(c2ccccc2)C(c2ccccc2)N1)c1ccccc1)c1ccc(Cl)cc1Cl (stereo not given)
> 100 µM (inactive)

Then this compound: CS/C=C\C(=O)O[C@H]1C[C@@H]2[C@@H](O)c3occ(C)c3C[C@]2(C)[C@@H](C)C1
14.8 µM (inactive)

Then this compound: CC12Nc3c(Cl)cc(Cl)cc3N1C(=O)c1ccccc12 (stereo not given)
> 100 µM (inactive)

Then this compound: CC1=C(c2ccc(C)cc2)NC(=S)C(C)C(c2ccc(C)cc2)=N1 (stereo not given)
51.1 µM (inactive)

Then this compound: CCCN(CCC)C(=S)N/N=C(/C)c1ccccc1O
7.71 µM (inactive)

Then this compound: COc1ccc(C2C=C(c3ccccc3)Nc3nnnn32)cc1 (stereo not given)
98.4 µM (inactive)

----------
Test system: EKVX
run description: NCI tumour cell line growth inhibition, 48 h
Calls of active or inactive are those of the source. Cut-off read from the data, not from the text of the source: active = GI50 up to about 1.1 µM and inactive = higher.
Use one of these outcomes when replying: 1.0 (active), 0.0 (inactive)

Hey, what did the test say about O=C1C(=O)C2(CC1S(=O)(=O)c1ccccc1)c1ccccc1-c1ccccc12 (stereo not given) ?
0.0

Then this compound: N#CC(C#N)=C1C(C#N)=C(N)NC12OCCO2
0.0

Then this compound: CCOC(=O)C1C2CCC1CC(=NNc1ccc([N+](=O)[O-])cc1[N+](=O)[O-])C2 (stereo not given)
0.0

Then this compound: NC(CCCC(N)P(=O)(O)c1ccccc1)P(=O)(O)c1ccccc1 (stereo not given)
0.0

Then this compound: O=P(c1ccccc1)(c1ccccc1)C(NCc1ccccc1)c1ccc(F)cc1 (stereo not given)
0.0

Then this compound: CNC(=O)[C@H](Cc1ccccc1)NC(=O)N(CCC#N)CCN(C(=O)N[C@@H](Cc1ccccc1)C(=O)OC)c1ccccc1
0.0

Then this compound: O=C1NC(=O)C(CC2CCCCCCCCCCC2=O)C(=O)N1 (stereo not given)
0.0

Then this compound: CCC1C(=O)C[C@H]2[C@@H]3C(O)CC4=CC(=O)CC[C@]4(C)[C@H]3CC[C@]12C (stereo not given in full)
0.0

Then this compound: C[C@]12CC[C@H](O)C[C@H]1CC[C@@H]1[C@@H]2CC[C@]2(C)[C@@H](C3=CC(=O)OC3)CC[C@]12O
1.0

Then this compound: COc1cc(NCc2ccc3oc(=O)c(-c4ccccc4)nc3c2)cc(OC)c1OC
0.0

Then this compound: CCOC(=O)c1nc2ccc(Cl)cc2c2c1CCO2
0.0

Then this compound: O=C(O[C@H](/C=C/c1ccccc1)P1(=O)N(Cc2ccccc2)[C@H]2CCCC[C@@H]2N1Cc1ccccc1)c1ccccc1
0.0

Then this compound: CSc1c(C#N)c(N)n(-c2ccc(C)cc2)c(=O)c1C#N
0.0

Then this compound: COc1ccc2cc(CNCCCCCCNCc3ccc4cc(OC)ccc4c3)ccc2c1
0.0

----------
Tested on: MOLT-4
run description: NCI tumour cell line growth inhibition, 48 h
Active and inactive are the calls of the source. Rule as the data show it: active = GI50 up to about 1.1 µM and inactive = higher.
Use one of these outcomes when replying: active, inactive

Hey, what did the test say about COC(=O)c1ccc(/C=C/S(=O)(=O)c2ccccc2)cc1 ?
inactive

Then this compound: C[n+]1c(-c2ccc(/C=N/NC(=O)c3ccc(C(=O)N/N=C/c4ccc(-c5cn6ccccc6[n+]5C)cc4)cc3)cc2)cn2ccccc21
inactive

Then this compound: C=CC1(C)CCC(C(C)C(=O)C(C=C(C)C)OC(C)=O)C12C(=O)Oc1ccccc1C2=O (centres undefined)
inactive

Then this compound: C[C@]12CC[C@H](O)C[C@H]1CC[C@@H]1[C@@H]2CC[C@]2(C)[C@@H](C3=CC(=O)OC3)CC[C@]12O
active

Then this compound: Cc1cc(NS(=O)(=O)c2ccc(Nc3c4ccccc4nc4c(C(=O)NCCN(C)C)cccc34)cc2)no1
active

Then this compound: COc1ccc(NC(=O)C(C#N)=C(SC)SC)cc1
inactive

Then this compound: CSCCC(NC(=O)OCc1ccccc1)NC(=O)OCc1ccccc1
inactive

Then this compound: CCN(N=O)C1C2(CCCC2)NC(=O)C12CCCC2 (centres undefined)
inactive

Then this compound: CCNCCCCNCC
inactive

Then this compound: CN(C)/C=N/CC(O)c1ccccc1 (centres undefined)
inactive

Then this compound: N#CC12C(=O)N3C(=NC(c4ccccc4)NC3c3ccccc3)C1(C#N)C(c1ccccc1)NC1=C2CCC1 (centres undefined)
inactive

Then this compound: CC1=N/C(=C/c2ccc3c(c2)OCO3)C(=O)O1
inactive

Then this compound: COC(=O)c1c(O)ccc2c1C1(Cc3ccccc3C1=O)C(O)O2 (centres undefined)
inactive

Then this compound: CC(C)(O)/C=C/C(=O)[C@](C)(O)[C@H]1[C@H](O)C[C@@]2(C)[C@@H]3CC=C4[C@@H](C[C@H](O)C(=O)C4(C)C)[C@]3(C)C(=O)C[C@]12C
active

Then this compound: Cc1cccc(NC(=S)N/N=C2\C(=O)Nc3ccccc32)c1
inactive

Then this compound: CC(=O)Nc1ccc(S(=O)(=O)N=S(C)C)cc1
inactive

Then this compound: C=CNC(=O)NC(=O)CSc1nc(=O)c(-c2ccccc2NC(=O)C(F)(F)F)n[nH]1
inactive

Then this compound: NCC(O)CN.Oc1c(Cl)c(Cl)c(Cl)c(Cl)c1Cl
inactive

Then this compound: CCn1c(SCC(=O)N/N=C/c2ccccc2)nc2ccccc2c1=O
inactive

----------
Tested on: A549
run description: NCI tumour cell line growth inhibition, 48 h
Activity calls are given as the source filed them. Cut-off read from the data, not from the text of the source: active = GI50 up to about 1.1 µM and inactive = higher.
measured parameter: GI50

// below: answered compounds
CC(Cc1ccc2c(c1)OCO2)N(C)C(=O)C1=CCN(C)CC1 (stereo not given)
> 100 µM (inactive)
CCCc1[nH]c2ccccc2c1-c1c(CCC)[nH]c2ccccc12
27.7 µM (inactive)
CC(C)[Si]1(C(C)C)OCC2OC(n3c(C(=O)c4ccccc4)cc(=O)[nH]c3=O)CC2O[Si](C(C)C)(C(C)C)O1 (stereo not given)
7.28 µM (inactive)
C[C@H]1COC(c2ccccn2)=N1
> 100 µM (inactive)

We next turn to a different compound, shown below.
I am curious: what GI50 value has been reported for CC1=C(c2ccc(C)cc2)NC(=S)C(C)C(c2ccc(C)cc2)=N1 (stereo not given) ?
81.5 µM (inactive)

----------
Tested on: SNB-19
run description: NCI tumour cell line growth inhibition, 48 h
The source made the active and inactive calls. Rule as the data show it: active = GI50 up to about 1.1 µM and inactive = higher.
measured parameter: GI50

I am curious: what GI50 value has been reported for Cc1ccc(Cl)c2c(=O)c3ccc([N+](=O)[O-])cc3sc12 ?
> 100 µM (inactive)

Then this compound: CN1CCN(c2nc3c(c(=O)n(C)c(=O)n3C)n2C)CC1
> 100 µM (inactive)

Then this compound: Cc1ccc(S(=O)(=O)N(c2ccccc2F)C2CCCCC2O)cc1 (stereo unspecified)
> 100 µM (inactive)

Then this compound: CC(=O)C1CC(C)=CCC12C(=O)Nc1ccccc12 (stereo unspecified)
> 100 µM (inactive)

----------
System: Hs-578T
run description: NCI tumour cell line growth inhibition, 48 h
Calls of active or inactive are those of the source. Cut-off read from the data, not from the text of the source: active = GI50 up to about 1.1 µM and inactive = higher.
Use one of these outcomes when replying: YES for active, NO for inactive

COc1ccc(OC)c(NS(=O)(=O)c2ccc3nc(C)n(NS(=O)(=O)c4cc(OC)ccc4OC)c(=O)c3c2)c1
NO

Hey, what did the test say about NC(=O)c1oc([N+](=O)[O-])c(-c2ccccc2)c1-c1ccccc1 ?
YES

Then this compound: O=C1C(=O)c2c(oc(=O)c3ccccc23)-c2ccccc21
NO

Then this compound: COc1ccc2cc(CN3CCC(C4CCN(Cc5ccc6cc(OC)ccc6c5)CC4)CC3)ccc2c1
NO

Then this compound: CCN(CC)CCCNc1[nH]c2ccccc2c2nc3ccc(OC)cc3c1-2
NO

Then this compound: C=C(Cl)C(Br)(CCl)CCC(Br)C(C)(C)Cl (stereo unspecified)
NO

Then this compound: NNC(=S)N/N=C(\C(=O)Nc1cccc(O)c1)C1C(=O)NC(=S)NC1=O
NO

Then this compound: Cc1ccc2c(c1)CC1(Cc3c(C)cccc3C1=O)C2=O (stereo unspecified)
NO

Then this compound: CC(=O)OCC1OC(Nc2ccc3nc(C)n(-c4ccccc4)c(=O)c3c2)C(OC(C)=O)C(OC(C)=O)C1OC(C)=O (stereo unspecified)
NO
